tested on: COLO 205; assay: NCI tumour cell line growth inhibition, 48 h
Active and inactive are the calls of the source. Rule as the data show it: active = GI50 up to about 1.1 µM and inactive = higher.
measuredParameter: GI50

Answered examples (10):
compound: C/C(=N\NC(=S)N1CCCCCC1)c1cccc2cccnc12
testedSystem: COLO 205
measuredParameter: GI50
resultValue: 0.459 µM (active)

compound: CN1C(=O)CC2(C)c3cc(C=O)ccc3N(C)C12 (stereo unspecified)
testedSystem: COLO 205
measuredParameter: GI50
resultValue: > 100 µM (inactive)

compound: NC(=S)N/N=C\c1nccc2ccccc12
testedSystem: COLO 205
measuredParameter: GI50
resultValue: 0.302 µM (active)

compound: Cc1ccc(N(C(=O)Nc2ccccc2)C2=NCC(C)S2)cc1C (stereo unspecified)
testedSystem: COLO 205
measuredParameter: GI50
resultValue: 19.4 µM (inactive)

compound: CCOC(=O)/C(=C\NC(=S)Nc1ccc(OCC)cc1)C(=O)c1ccccc1
testedSystem: COLO 205
measuredParameter: GI50
resultValue: > 100 µM (inactive)

compound: COc1cc2ccnc(-c3c4ccccc4c(N)c4c(OC)c(OC)ccc34)c2cc1OC
testedSystem: COLO 205
measuredParameter: GI50
resultValue: 1.58 µM (inactive)

compound: COC1=CC(=O)c2c(ccc3ncnc(N)c23)C1=O
testedSystem: COLO 205
measuredParameter: GI50
resultValue: 3.58 µM (inactive)

compound: C/C(CC(=O)CCCC(=O)Nc1ccc(Cl)cc1Cl)=N/NC(=O)CC#N
testedSystem: COLO 205
measuredParameter: GI50
resultValue: > 100 µM (inactive)

compound: CSc1c(C#N)c(O)nc(N)c1C(=O)Nc1ccc(Cl)cc1
testedSystem: COLO 205
measuredParameter: GI50
resultValue: 10.6 µM (inactive)

compound: CS(=O)(=O)NNS(=O)(=O)c1ccc(Br)cc1
testedSystem: COLO 205
measuredParameter: GI50
resultValue: > 100 µM (inactive)

Note: attention shifts to another entry.
Q. Please provide the recorded GI50 for COC(=O)[C@H](Cc1ccccc1)NC(=O)OCC1OC(n2cc(C)c(=O)[nH]c2=O)CC1N=[N+]=[N-] (stereo partly specified) , tested on COLO 205.
A. > 100 µM (inactive)

---

tested on: BT-549; assay: NCI tumour cell line growth inhibition, 48 h
The source made the active and inactive calls. No stated cut-off is given here; in the data, active = GI50 up to about 1.1 µM and inactive = higher. Peptide text beside a SMILES is read from it. * marks the point of attachment. Cbz = O=C(OCc1ccccc1)*; Boc = CC(C)(C)OC(=O)*; OBn = c1ccc(CO*)cc1
measuredParameter: GI50

Answered examples (5):
compound: O=C1CC(NC2CC(=O)c3c(Br)sc(Br)c32)c2c(Br)sc(Br)c21 (centres undefined)
GI50: 14.1 µM (inactive)
--
compound: CC(C)=CCNc1ncnc2c1c(C#N)cn2C1OC(CO)C(O)C1O (centres undefined)
GI50: > 100 µM (inactive)
--
compound: O=C(O)/C=C(/CC(=O)O)C(=O)O
GI50: 21.1 µM (inactive)
--
compound: N#Cc1ccc(C(O)C(F)(F)c2nc3ccccc3o2)cc1 (centres undefined)
GI50: 71.4 µM (inactive)
--
compound: CN(C)c1ccc(/C=C2\CCCCCC2=O)cc1
GI50: 81.5 µM (inactive)

Q. Data request, read-out GI50, for `CCN(C(=O)N[C@@H](CC(C)C)C(=O)NCC(=O)OC)c1ccccc1`
A. > 100 µM (inactive)

Q. Let us now turn to C[N+]1(CCC(=O)c2ccco2)CC2CCC(CC2)C1 (centres undefined)
A. > 100 µM (inactive)

Q. Let us now turn to NCCCCC(N)C(=O)N1CCN(c2nc(N3CCCC3)c3nc(Cl)c(NCc4ccccc4)nc3n2)CC1 (centres undefined)
A. 18.5 µM (inactive)

Q. Let us now turn to `CNc1nncc2[nH]cnc12`
A. > 100 µM (inactive)

Q. Let us now turn to COC(=O)C(CCCCNC(=O)OCc1ccccc1)NC(=O)C(CCC(=O)OCc1ccccc1)NC(=O)OC(C)(C)C (centres undefined) (Boc-Glu(OBn)-Lys(Cbz)-OMe; configuration not given here)
A. > 100 µM (inactive)

Q. Let us now turn to `Cn1c2ccccc2n2c3ccccc3c(=S)c(C#N)c12`
A. > 100 µM (inactive)

Q. Let us now turn to CC(=O)NC1C(OCc2ccccc2)OC(CO)C(O)C1OCC(=O)NC(C)C(=O)NC(CCC(=O)NCCCCNc1ccc([N+](=O)[O-])c2[nH]c3ccccc3c(=O)c12)C(N)=O (centres undefined)
A. 30.1 µM (inactive)

Q. Let us now turn to `O=C1/C(=C/c2cccc(Br)c2)Cc2ccccc21`
A. 34.5 µM (inactive)

Q. Let us now turn to `CC(=O)OCc1ccc2oc(=O)c(C(=O)Oc3ccccc3)cc2c1`
A. > 100 µM (inactive)

---

test system: Hs-578T; assay: NCI tumour cell line growth inhibition, 48 h
The source made the active and inactive calls. Cut-off read from the data, not from the text of the source: active = GI50 up to about 1.1 µM and inactive = higher.
Form entry, call: pick from True = active, False = inactive

Before answering, review these 4 worked examples.
compound: CN1CC2CC(C1)c1cccc(=O)n1C2 (stereo not given)
category: False
--
compound: O=C1c2cccc3cc([N+](=O)[O-])cc(c23)C(=O)N1CCCN1CCN(CCCNc2ccc3ncn4c5ccccc5c(=O)c2c34)CC1
category: True
--
compound: CSc1c(C#N)c(O)nc(N)c1C(=O)Nc1ccc(Cl)cc1
category: False
--
compound: O=C1CSC(=S)N1 [RHODANINE]
category: False

--- query ---
Q. Test call for this compound, please: O=C1CC[C@@]23CC(=O)O[C@@H]2CCCC3C1 (stereo not given in full)
A. False

---

Recorded GI50 for the following compounds
tested on: RXF 393; test: NCI tumour cell line growth inhibition, 48 h
The source made the active and inactive calls. Rule as the data show it: active = GI50 up to about 1.1 µM and inactive = higher.

compound: C=C(C)C#CC(O)(C(=O)OC1CCN(C)CC1)C(C)C (configuration not stated)
resultValue: > 100 µM (inactive)

compound: CC(=O)OC1(C)C(=O)OC1(C)C(C)=O (configuration not stated)
resultValue: > 100 µM (inactive)

compound: O=C1CCCC(=O)N1n1c(Cc2ccccc2)n[nH]c1=O
resultValue: > 100 µM (inactive)

Q. Data request, read-out GI50, for `COc1ccc(-c2csc(=[N+]3CCCCC3)s2)cc1`
A. 4.14 µM (inactive)

Q. Let us now turn to `N#Cc1c(N2CCOCC2)[nH]c(=O)c(C(c2c(Cl)cccc2Cl)c2c(O)c(C#N)c(N3CCOCC3)[nH]c2=O)c1O`
A. 14.1 µM (inactive)

Q. Let us now turn to CC(Oc1ccc(Cl)cc1Cl)C(=O)NN1C(=O)CSC1c1ccccc1 (configuration not stated)
A. 54.7 µM (inactive)

Q. Let us now turn to Nc1nc2c(c(=O)[nH]1)C(c1ccc(Cl)cc1)C=C(c1ccccc1)N2 (configuration not stated)
A. 43.6 µM (inactive)

---

tested on: SNB-19; experiment: NCI tumour cell line growth inhibition, 48 h
The source made the active and inactive calls. Cut-off read from the data, not from the text of the source: active = GI50 up to about 1.1 µM and inactive = higher.
Recorded GI50 for the following compounds

compound: COC(=O)[C@]1(C)C(OC)=CC(=O)C2C1[C@H]1CCC[C@@H]21 (stereo partly drawn)
measuredParameter: GI50
resultValue: > 100 µM (inactive)
//
compound: O=C(NO)c1ccc(O)c(O)c1
measuredParameter: GI50
resultValue: > 100 µM (inactive)
//
compound: Oc1cccc(-c2cc(=S)ss2)c1
measuredParameter: GI50
resultValue: 19.7 µM (inactive)
//
compound: O=C1COc2cccnc2N1CCCCO
measuredParameter: GI50
resultValue: > 100 µM (inactive)
//
compound: COc1cc(S(=O)(=O)Nc2nc(-c3ccc(N4C(=O)C(CC(=O)O)SC4c4cccs4)cc3)cs2)ccc1Cl (stereo not drawn)
measuredParameter: GI50
resultValue: 79.6 µM (inactive)
//
compound: O=C(COc1ccc(Br)cc1Br)N1N=C(c2ccc([N+](=O)[O-])o2)CC1(O)c1ccccc1 (stereo not drawn)
measuredParameter: GI50
resultValue: 19.3 µM (inactive)
//
compound: CC(=O)OCC1OC(n2c(-c3ccc(C)cc3)cc(-c3ccccc3)c(C#N)c2=O)C(OC(C)=O)C(OC(C)=O)C1OC(C)=O (stereo not drawn)
measuredParameter: GI50
resultValue: > 100 µM (inactive)
//
compound: C(=N\CCCN1CCN(CCC/N=C/c2cccc3ccccc23)CC1)/c1cccc2ccccc12
measuredParameter: GI50
resultValue: 60.7 µM (inactive)

Q. Data request, read-out GI50, for `C/C(=N\NC(=S)N1CCCCCC1)c1cccc2cccnc12`
A. 1.76 µM (inactive)

Q. Let us now turn to CN(CCS(=O)(=O)N1C(=O)C2CCCN2C(=O)[C@@H]1Cc1ccccc1)C(=O)OCc1ccccc1 (stereo partly drawn)
A. 41.6 µM (inactive)

Q. Let us now turn to `CCOC(=O)/C(=C\NC(=S)Nc1ccc(OCC)cc1)C(=O)c1ccccc1`
A. > 100 µM (inactive)

Q. Let us now turn to `O=c1c(Sc2c(SCSc3cnc4ccccc4c3Sc3c[nH]c4ccccc4c3=O)cnc3ccccc23)c[nH]c2ccccc12`
A. 46.6 µM (inactive)

Q. Let us now turn to Clc1cc2ncn(C3CCCO3)c2cc1Cl (stereo not drawn)
A. > 100 µM (inactive)

Q. Let us now turn to `Cc1ccc(NC(=O)C(=O)CC(=O)c2sc(Nc3c(C)cccc3C)nc2C)cc1C`
A. > 100 µM (inactive)

Q. Let us now turn to `O=C1NC(=S)N/C1=C\c1cc2c(=O)c3ccccc3sc2s1`
A. 33.4 µM (inactive)

Q. Let us now turn to `O=[N+]([O-])c1cc([As](Br)c2ccc(O)c([N+](=O)[O-])c2)ccc1O`
A. 1.94 µM (inactive)

Q. Let us now turn to CC(OC(=O)NCn1cc(-c2ccccc2)nn1)c1ccccc1 (stereo not drawn)
A. > 100 µM (inactive)

Q. Let us now turn to `O=C(N/C(=C\c1ccccc1Cl)c1nc2ccccc2[nH]1)c1ccccc1`
A. 29.3 µM (inactive)

Q. Let us now turn to `O=C(O)/C=C(/CC(=O)O)C(=O)O`
A. 22.2 µM (inactive)

Q. Let us now turn to `CN(C)c1n/c(=N/Cc2ccccn2)ss1`
A. > 10 µM (inactive)

Q. Let us now turn to `CCCCNC(=O)c1cc2c(cc1Cl)Sc1nccn1S2(=O)=O`
A. > 100 µM (inactive)

Q. Let us now turn to `CNc1nncc2[nH]cnc12`
A. > 100 µM (inactive)

Q. Let us now turn to COC(=O)[C@H](Cc1ccccc1)NC(=O)OCC1OC(n2cc(C)c(=O)[nH]c2=O)CC1N=[N+]=[N-] (stereo partly drawn)
A. > 100 µM (inactive)
